From: the Kinase Knowledgebase extract (Sharma et al. 2016)

Attribute: IC50
target: PIK3CD (Human); experiment: Assessment of PIK3CD Kinase Activity (Scintillation Proximity Assay)

molecule	IC50
COc1c(C(C)n2nc(C)c3c(N)nccc32)cc(Cl)c(C)c1-c1ccc(C(=O)N(C)C)nc1 (centres undefined)	0.05 to 0.2 µM

Given the molecule CCOc1c(C(C)n2nc(C)c3c(N)ncnc32)cc(Cl)c(C)c1C1CN(C(=O)[C@@H](C)O)C1 (some centres undefined) , what is its reported IC50?
≤ 0.01 µM

What would you report for COc1c(C(C)n2ccc(=O)c3c(N)ncnc32)cc(Cl)c(C)c1C1CN(C(C)C)C1 (centres undefined) ?
≤ 0.01 µM

What would you report for CCOc1c(C(C)n2nc(C(F)F)c3c(N)ncnc32)cc(Cl)c(F)c1C1CN(CC(C)(C)O)C1 (centres undefined) ?
≤ 0.01 µM

====

target: UniProtKB O00329; experiment: Assessment of PIK3CD Kinase Activity (Scintillation Proximity Assay)
pIC50: −log10 of the molar value.
Attribute: pIC50

Example compounds with recorded pIC50:
compound	pIC50
CCOc1c(C(C)n2nc(C)c3c(N)ncnc32)cc(Cl)c(C#N)c1C1CN(C(=O)NC)C1 (stereo not given)	≥ 8.00
CCOc1c(C(C)n2nc(CF)c3c(N)ncnc32)cc(Cl)c(C)c1-c1ccc(C(=O)N(C)C)nc1 (stereo not given)	≥ 8.00
CCOc1c(C(C)n2nc(C)c3c(N)ncnc32)cc(Cl)c(C#N)c1-c1cncnc1 (stereo not given)	≥ 8.00

Given the compound COc1c(C(C)n2nc(C)c3c(N)ncnc32)cc(Cl)c(C)c1C1CN(C2COC2)C1 (stereo not given) , what is its reported pIC50?
≥ 8.00

What would you report for CCOc1c(C(C)n2nc(C#C[C@@H](C)O)c3c(N)ncnc32)cc(Cl)c(C)c1-c1ccc(C(=O)N(C)C)nc1 (stereo not given in full) ?
≥ 8.00

====

molecular target: PIK3CD (Human) (UniProt O00329); assay: Assessment of PIK3CD Kinase Activity (Scintillation Proximity Assay)
Sequence (O00329 whole entry, looked up): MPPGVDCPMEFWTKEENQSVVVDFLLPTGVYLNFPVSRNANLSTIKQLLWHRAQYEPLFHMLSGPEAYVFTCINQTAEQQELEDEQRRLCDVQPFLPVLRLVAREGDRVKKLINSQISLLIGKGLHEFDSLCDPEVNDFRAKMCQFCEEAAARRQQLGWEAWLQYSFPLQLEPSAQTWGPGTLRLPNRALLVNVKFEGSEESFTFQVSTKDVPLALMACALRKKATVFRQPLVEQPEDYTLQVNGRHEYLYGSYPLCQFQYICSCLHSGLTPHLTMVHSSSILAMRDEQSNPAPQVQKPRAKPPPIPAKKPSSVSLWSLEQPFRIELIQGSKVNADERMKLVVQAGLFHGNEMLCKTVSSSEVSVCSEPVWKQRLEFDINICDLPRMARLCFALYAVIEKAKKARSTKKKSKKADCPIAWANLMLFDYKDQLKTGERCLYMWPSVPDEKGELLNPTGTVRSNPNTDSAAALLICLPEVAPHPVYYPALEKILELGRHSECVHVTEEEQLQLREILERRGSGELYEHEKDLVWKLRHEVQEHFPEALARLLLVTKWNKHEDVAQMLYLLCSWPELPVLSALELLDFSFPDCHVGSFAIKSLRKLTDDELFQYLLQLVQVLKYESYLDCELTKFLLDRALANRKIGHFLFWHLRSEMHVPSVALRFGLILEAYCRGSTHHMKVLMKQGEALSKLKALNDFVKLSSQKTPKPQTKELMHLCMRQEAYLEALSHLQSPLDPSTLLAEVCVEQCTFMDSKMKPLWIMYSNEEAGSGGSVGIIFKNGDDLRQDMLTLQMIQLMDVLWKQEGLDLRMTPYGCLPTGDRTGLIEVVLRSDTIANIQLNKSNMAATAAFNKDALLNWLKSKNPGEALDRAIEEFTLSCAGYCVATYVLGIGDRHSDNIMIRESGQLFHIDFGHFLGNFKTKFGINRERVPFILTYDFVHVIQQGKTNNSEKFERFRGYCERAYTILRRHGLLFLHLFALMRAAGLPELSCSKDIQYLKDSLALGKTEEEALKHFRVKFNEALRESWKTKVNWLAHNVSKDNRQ
pIC50: −log10 of the molar value.
Attribute: pIC50

Example molecules with recorded pIC50:
molecule	measure	value-measured
CCOc1c(C(C)n2nc(C)c3c(N)ncnc32)cc(Cl)c(C)c1C1CN(C[C@H](C)O)C1 (some centres undefined)	pIC50	≥ 8.00
CCOc1c(C(C)n2nc(C)c3c(N)ncnc32)cc(Cl)c(F)c1C1CN(C)C1 (centres undefined)	pIC50	≥ 8.00
CCOc1c(C(C)n2nc(C)c3c(N)ncnc32)cc(Cl)c(C#N)c1C1CN(C(C)(C)C(=O)NC)C1 (centres undefined)	pIC50	≥ 8.00
CCOc1c(C(C)n2nc(C)c3c(N)ncnc32)cc(Cl)c(C#N)c1C1CNC(=O)C1 (centres undefined)	pIC50	≥ 8.00
COc1c(C(C)n2nc(C)c3c(N)ncnc32)cc(Cl)c(C)c1C1CN(CC(C)C)C1 (centres undefined)	pIC50	≥ 8.00

Given the molecule COc1c(C(C)n2nc(C)c3c(N)ncnc32)cc(Cl)c(C)c1C1CN(C(=O)c2cn[nH]c2)C1 (centres undefined) , what is its reported pIC50?
≥ 8.00

What would you report for COc1c(C(C)n2nc(C)c3c(N)ncnc32)cc(C#N)c(C)c1-c1cnn(C)c1 (centres undefined) ?
7.30 to 8.00

What would you report for COc1c(C(C)n2nc(C)c3c(N)ncnc32)cc(Cl)c(C)c1C1CN(CC#N)C1 (centres undefined) ?
≥ 8.00

What would you report for CCOc1c(C(C)n2nc(C)c3c(N)ncnc32)cc(Cl)c(F)c1C1CN(CC(N)=O)C1 (centres undefined) ?
≥ 8.00
